# ASSAYED_SYSTEM: Cat B (Homo sapiens, UniProt P07858)
# ASSAY_DETAILS: Cathepsin B inhibition in vitro
# Format: biochemical
# EXPERIMENTAL_SETUP: Table B; unit inferred; read-out: Cat B
ASSAY_ENDPOINT: IC50

## Task # value lookup — system Cat B (Homo sapiens, UniProt P07858), readout IC50, item CC/C(=N\NC(N)=S)c1cccc(Br)c1 [Compound 5, 3-Bromopropiophenone thiosemicarbazone]
## Result > 50 µM

---

# ASSAYED_SYSTEM: Human liver cathepsin L (Homo sapiens, UniProt P07711)
# Construct: from tissue; host or cells: human liver
# Sequence (P07711 114-333): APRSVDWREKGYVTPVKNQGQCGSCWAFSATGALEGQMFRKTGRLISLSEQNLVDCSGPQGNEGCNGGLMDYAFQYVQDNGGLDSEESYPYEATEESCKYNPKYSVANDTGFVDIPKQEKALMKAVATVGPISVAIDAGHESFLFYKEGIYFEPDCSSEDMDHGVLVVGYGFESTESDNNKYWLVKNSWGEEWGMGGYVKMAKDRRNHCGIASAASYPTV
# ASSAY_DETAILS: Cathepsin L inhibition in vitro (Z-FR-AMC fluorescence)
# Assay type: biochemical
# EXPERIMENTAL_SETUP: Table A; 1 nM human liver cathepsin L, pH 5.5, 25° C., 50 μM Z-FR-AMC; read-out: Cat L IC50
// thresholds for IC50 classes: bottom bin (below 0.6 µM), middle bin (0.6 µM to below 4 µM), top bin (4 µM or more)

Recorded results for 3 compounds are shown here.
- COMPOUND: "NC(=S)N/N=C1\\CCc2ccc(Br)cc2C1"
  ASSAYED_SYSTEM: "Human liver cathepsin L (Homo sapiens, UniProt P07711)"
  CLASS_LABEL: "top bin"
- COMPOUND: "NC(=S)N/N=C1\\CCc2ccccc2O1"
  ASSAYED_SYSTEM: "Human liver cathepsin L (Homo sapiens, UniProt P07711)"
  CLASS_LABEL: "middle bin"
- COMPOUND: "NC(=S)N/N=C1\\CCCc2ccc(Br)cc21"
  ASSAYED_SYSTEM: "Human liver cathepsin L (Homo sapiens, UniProt P07711)"
  CLASS_LABEL: "middle bin"

## Task Which class does NC(=S)NN=C(c1cccc(Br)c1)c1cccc(Br)c1 fall in?
## Result bottom bin

## Task Which class does NC(=S)N/N=C1\CCOc2ccccc21 fall in?
## Result top bin

## Task Which class does NC(=S)N/N=C1\CCC(c2ccc(Br)cc2)C1 (stereo not shown) fall in?
## Result top bin

## Task Which class does NC(=S)N/N=C1\CCS(=O)(=O)c2c(Br)cc(Br)cc21 fall in?
## Result middle bin

## Task Which class does NC(=S)N/N=C1\CCc2c(Br)cc(Br)cc2C1 fall in?
## Result top bin

## Task Which class does CC/C(=N\NC(N)=S)c1cccc(O)c1 fall in?
## Result middle bin

---

For each record, write down the corresponding pIC50.
# ASSAYED_SYSTEM: Human liver cathepsin L (Homo sapiens)
# Construct: from tissue; host or cells: human liver
# ASSAY_DETAILS: Cathepsin L inhibition in vitro (Z-FR-AMC fluorescence)
# Type: biochemical
# EXPERIMENTAL_SETUP: Table A; 1 nM human liver cathepsin L, pH 5.5, 25° C., 50 μM Z-FR-AMC; read-out: Cat L IC50
One number for each entry, as −log10 of the molar value.

- MOL_SMILES: "NC(=S)N/N=C(\\c1ccccc1)c1cccc(Br)c1"
  pIC50: 4.79
- MOL_SMILES: "CC/C(=N\\NC(N)=S)c1cccc(N)c1"
  pIC50: 5.79

Fill in pIC50 for each of the 2 compounds listed.
1. CC/C(=N\NC(N)=S)c1cccc([N+](=O)[O-])c1
2. NC(=S)N/N=C1\CCS(=O)(=O)c2ccc(Br)cc21

## Result
5.24
9.00

---

# ASSAYED_SYSTEM: Cat B (Homo sapiens, UniProt P07858)
# ASSAY_DETAILS: Cathepsin B inhibition in vitro
# Assay type: biochemical
# EXPERIMENTAL_SETUP: Table A; read-out: Cat B IC50
pIC50: −log10 of the molar value.
ASSAY_ENDPOINT: pIC50

- MOL_SMILES: "NC(=S)N/N=C1\\CCc2ccc(Br)cc2C1"
  RESULT: "> 4.30"
- MOL_SMILES: "NC(=S)N/N=C1\\CCc2c(Br)cc(Br)cc2C1"
  RESULT: "< 4.30"

## Task // returns reported pIC50 for input NC(=S)NN=C(c1cccc(Br)c1)c1cccc(Br)c1
## Result < 5.52

---

# ASSAYED_SYSTEM: Human liver cathepsin L (Homo sapiens)
# Construct: from tissue; host or cells: human liver
# ASSAY_DETAILS: Cathepsin L inhibition in vitro (Z-FR-AMC fluorescence)
# Type: biochemical
# EXPERIMENTAL_SETUP: Table B; unit inferred; read-out: Cat L
pIC50: −log10 of the molar value.
ASSAY_ENDPOINT: pIC50

## Task // returns reported pIC50 for input CC/C(=N\NC(N)=S)c1cccc(Br)c1
## Result < 5.00

---

# ASSAYED_SYSTEM: Cruzain (Trypanosoma cruzi, UniProt P25779)
# Sequence (P25779 123-467): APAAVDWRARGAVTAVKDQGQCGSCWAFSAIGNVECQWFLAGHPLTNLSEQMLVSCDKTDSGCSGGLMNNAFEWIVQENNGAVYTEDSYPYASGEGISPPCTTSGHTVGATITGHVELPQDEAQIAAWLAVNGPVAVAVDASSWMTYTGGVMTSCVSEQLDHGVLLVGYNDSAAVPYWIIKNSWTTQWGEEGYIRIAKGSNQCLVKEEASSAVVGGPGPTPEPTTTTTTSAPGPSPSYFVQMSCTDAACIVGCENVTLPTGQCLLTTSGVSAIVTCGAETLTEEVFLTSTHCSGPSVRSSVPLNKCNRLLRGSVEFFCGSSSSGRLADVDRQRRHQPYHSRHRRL
ASSAY_ENDPOINT: pIC50
Numbers only, as −log10 of the molar value.

Here are 3 compounds together with their reported answers.
- MOL_SMILES: "NC(=S)N/N=C(\\c1ccccc1)c1cccc(Br)c1"
  pIC50: 7.10
- MOL_SMILES: "CC/C(=N\\NC(N)=S)c1cccc([N+](=O)[O-])c1"
  pIC50: 6.07
- MOL_SMILES: "NC(=S)N/N=C1\\CCS(=O)(=O)c2c(Br)cc(Br)cc21"
  pIC50: 6.09

## Task // returns reported pIC50 for input NC(=S)N/N=C1\CCCc2c(Br)cccc21
## Result 5.92

---

# ASSAYED_SYSTEM: Human liver cathepsin L (Homo sapiens)
# Construct: from tissue; host or cells: human liver
# ASSAY_DETAILS: Cathepsin L inhibition in vitro (Z-FR-AMC fluorescence)
# Assay type: biochemical
# EXPERIMENTAL_SETUP: Table A; 1 nM human liver cathepsin L, pH 5.5, 25° C., 50 μM Z-FR-AMC; read-out: Cat L IC50
For each record, write down the corresponding IC50.
One number for each entry, in µM.

Here are 3 compounds together with their reported answers.
- COMPOUND: "NC(=S)N/N=C1\\CCS(=O)(=O)c2ccccc21"
  IC50 (µM): 5.05
- COMPOUND: "NC(=S)N/N=C1\\CCCC(c2ccc(Br)cc2)C1 (stereo not shown)"
  IC50 (µM): 2.91
- COMPOUND: "NC(=S)N/N=C1\\CCCc2c(Br)cccc21"
  IC50 (µM): 0.367

As a next step, examine the compound that follows.
## Task // returns reported IC50 for input C=CC(=O)C1=CCCc2ccc(Br)cc21
## Result 0.372
